# maps each entry to its GI50
# Tested on: MDA-MB-468 breast
# PROCEDURE_SUMMARY: NCI tumour cell line growth inhibition, 48 h

[
  {
    "ENTRY_SMILES": "NC(N)=NN=C(c1ccccc1)c1ccccc1",
    "TGT": "MDA-MB-468 breast",
    "GI50": "2.2 µM"
  },
  {
    "ENTRY_SMILES": "O=C1Nc2ccccc2/C1=C\\c1c(-c2ccccc2)nc2ccccn12",
    "TGT": "MDA-MB-468 breast",
    "GI50": "2.1 µM"
  },
  {
    "ENTRY_SMILES": "C=CC(=O)N1CCN(CCCn2c(=O)c(-c3c(Cl)c(OC)cc(OC)c3Cl)cc3cnc(NC)nc32)CC1",
    "TGT": "MDA-MB-468 breast",
    "GI50": "1.24 µM"
  }
]

src = PubChem BioAssay (NCI)
